target: human MMP-9 (gelatinase B) (Homo sapiens); construct: endogenous in cells; host or cells: HT1080 human fibrosarcoma cells (ATCC CCL-121), PMA-stimulated; enzyme purified from the culture supernatant; assay: Inhibition activity against human MMP-9 (gelatinase B), fluorescent peptide substrate; format: biochemical; conditions: compounds of the formula (I); average of 1st and 2nd (or single measurement); read-out: MMP-9 inhibition activities IC50, Average
Sequence (P14780 107-707 limits assumed): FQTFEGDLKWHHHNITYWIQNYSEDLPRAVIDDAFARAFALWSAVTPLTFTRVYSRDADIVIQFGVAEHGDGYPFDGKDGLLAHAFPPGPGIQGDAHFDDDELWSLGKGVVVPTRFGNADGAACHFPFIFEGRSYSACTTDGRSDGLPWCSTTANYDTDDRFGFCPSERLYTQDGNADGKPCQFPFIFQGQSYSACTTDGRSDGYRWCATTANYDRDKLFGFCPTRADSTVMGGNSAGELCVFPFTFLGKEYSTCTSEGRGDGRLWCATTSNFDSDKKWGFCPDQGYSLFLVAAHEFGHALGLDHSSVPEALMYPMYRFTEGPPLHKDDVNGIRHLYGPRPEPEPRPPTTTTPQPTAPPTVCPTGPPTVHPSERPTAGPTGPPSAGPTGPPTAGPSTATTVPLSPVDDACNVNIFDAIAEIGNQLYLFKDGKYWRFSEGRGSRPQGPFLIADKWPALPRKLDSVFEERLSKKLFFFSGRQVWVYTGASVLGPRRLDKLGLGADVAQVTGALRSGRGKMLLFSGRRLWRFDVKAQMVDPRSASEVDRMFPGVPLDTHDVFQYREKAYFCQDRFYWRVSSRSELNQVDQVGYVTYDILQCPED
PROPERTY: IC50 (µM)

Reference set, count: 5
[
  {
    "MOLECULE": "CNC(=C[N+](=O)[O-])NN=Cc1ccc2ccccc2c1",
    "TEST_TARGET": "human MMP-9 (gelatinase B) (Homo sapiens)",
    "UNIT_TAG": "µM",
    "IC50": 24.3
  },
  {
    "MOLECULE": "COc1ccc(NC(=C[N+](=O)[O-])NN)cc1OC",
    "TEST_TARGET": "human MMP-9 (gelatinase B) (Homo sapiens)",
    "UNIT_TAG": "µM",
    "IC50": 36.7
  },
  {
    "MOLECULE": "CNC(=C[N+](=O)[O-])NN=Cc1ccccn1",
    "TEST_TARGET": "human MMP-9 (gelatinase B) (Homo sapiens)",
    "UNIT_TAG": "µM",
    "IC50": 27.7
  },
  {
    "MOLECULE": "CCS(=O)(=O)NC(=C[N+](=O)[O-])NNc1cc(C(F)(F)F)cc(Cl)n1",
    "TEST_TARGET": "human MMP-9 (gelatinase B) (Homo sapiens)",
    "UNIT_TAG": "µM",
    "IC50": 6
  },
  {
    "MOLECULE": "CNC(=C[N+](=O)[O-])NN=Cc1ccc2c(c1)OCO2",
    "TEST_TARGET": "human MMP-9 (gelatinase B) (Homo sapiens)",
    "UNIT_TAG": "µM",
    "IC50": 22.6
  }
]

(1) CNC(=C[N+](=O)[O-])NNc1cc(C(F)(F)F)cc(OCCN2CCOCC2)n1
(2) NNC(=C[N+](=O)[O-])NCc1ccncc1
(3) CNC(=C[N+](=O)[O-])NNc1cccc(Cl)n1
(4) CNC(=C[N+](=O)[O-])NNc1cc(C(F)(F)F)cc(OCCSC)n1
(5) CCCCNC(=C[N+](=O)[O-])NN
Ask: Output the entries ranked by IC50 from maximum down to minimum. As an answer, provide the labels arranged in the order called for.
Reply: 5, 2, 4, 1, 3
(5: 47 µM, 2: 27.7 µM, 4: 11.1 µM, 1: 6.2 µM, 3: 2.9 µM)

(A) C=C1C(C)=NN/C(=C\[N+](=O)[O-])N1c1ccccc1
(B) CNC(=C[N+](=O)[O-])NN(C)c1cccc(C(F)(F)F)n1
Ask: // max by IC50 over [ A , B ] Answer by quoting the chosen item's label.
Reply: A

(a) CCOc1cc(C(F)(F)F)cc(NNC(=C[N+](=O)[O-])NC)n1
(b) NNC(=C[N+](=O)[O-])Nc1ccccc1
(c) CNC(=C[N+](=O)[O-])NNc1cc(C(F)(F)F)cc(OCc2ccccn2)n1
(d) CNC(=C[N+](=O)[O-])NNc1ccccc1Cl
Ask: Output the entries ranked by IC50 from maximum down to minimum. As an answer, provide the labels arranged in the order called for.
Reply: d, b, c, a
(d: 33.4 µM, b: 22.9 µM, c: 14.5 µM, a: 10.1 µM)
